- Assay procedure: NCI Yeast Anticancer Drug Screen. Data for the mec2-1 strain (AID 157)
- Condition context: S. cerevisiae mec2-1 strain, at 5.0 µM (retest, dose inferred, filed as 0.5), active compounds read high
About 79,000 compounds went through this panel and 15% of them were active in at least one assay; those are over-represented in the sample as a whole.

Molecule	growth inhibition [%]
O=C(Nc1ccccc1-c1nn(C(=S)Nc2ccccc2)c(=S)n(C(=S)Nc2ccccc2)c1=O)C(F)(F)F	2
CC1CCN(CCC(=O)c2cccc(O)c2)CC1	-5
C[C@]12CC[C@H](O)C[C@@H]1CC[C@@H]1[C@@H]2C(=O)C[C@]2(C)C3=CC(=O)O[C@H]3C[C@@H]12	27
Cc1ccc2c(ccc(CC(=S)[S-])[n+]2C)c1	11
O=C(O)C1CC2C3(Cl)C(Cl)=C(Cl)C(Cl)C2(CC1c1c2ccc(=O)c(O)c-2oc2c(O)c(O)ccc12)C3(Cl)Cl (centres undefined)	21
O=C1c2cccnc2-c2nccc3c2c1nc1cc(Br)ccc13	44
CCCCNCCCCCCCCCCCl	65
COc1cccc(C(=O)C(CN(C)C)CN(C)C)c1	26
COC(=O)[C@@H]1c2cc3c(c(O)c2[C@@H](OC2OC(C)C(OC)C(C)(OC)C2OC)C[C@]1(C)O)C(=O)c1c(O)cc2c(c1C3=O)O[C@H]1O[C@]2(C)[C@H](O)[C@@H](N(C)C)[C@@H]1O (some centres undefined)	45
CCOc1ccccc1N1C(=O)C=CC1=O	60
OC1(CCc2ccccc2)COC(C(F)(F)F)(C(F)(F)F)C1 (centres undefined)	16
CC12CC(Br)(Br)C(=O)C3C1CCCC32	48
Cc1ccc(N=c2cc(-c3ccccc3)oc3ccccc23)c(C)c1	-11
O=[N+]([O-])C1C(c2ccccc2)CC=CC1N1CCCC1 (centres undefined)	15

----------
- Assay procedure: NCI Yeast Anticancer Drug Screen. Data for the rad50 strain (AID 155);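 note: 0% = growth of vehicle-only cultures of the same strain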
- Condition context: S. cerevisiae rad50 strain growth inhibition; at 50.0 µM (retest, dose inferred, filed as 5.0)
This is part of a sample that, as a whole, favours compounds with a hit. Of some 79,000 tested, about 15% had one in any assay. Activity calls are given as the source filed them. Rule as the data show it: active = growth inhibition above about 70%; inactive = the rest.
Labels: active, inactive

Compound	Class name
Cc1cccc(Nc2c3c(nc4ccccc24)CCCCC3)c1	active
CC1=NC(C)=C(/C(C)=N/NC(=O)c2ccccc2O)C(C)/C1=C(/C)NNC(=O)c1ccccc1O (centres undefined)	inactive
CSc1ncnc2ncn(C3OC(CO)C(O)C3O)c12 (centres undefined)	inactive
OC(Cc1ccccc1)(c1ccccc1)C(O)(Cc1ccccc1)c1ccccc1 (centres undefined)	active
CCN1/C(=C\c2cc[n+](CC)c3ccccc23)C=Cc2ccccc21	active
Cc1cc(O)c2c(c1)C(=O)c1c(c(O)cc(O)c1-c1c(O)cc(O)c3c1C(=O)c1cc(C)cc(O)c1C3=O)C2=O	inactive
O=S(=O)(O)N=Nc1ccc(O)cc1	active
COc1ccc(OC)c(C(Cc2ccnc3ccccc23)Cc2ccnc3ccccc23)c1	active
OC1(CCc2ccccc2)COC(C(F)(F)F)(C(F)(F)F)C1 (centres undefined)	inactive
O=C1C=CC(=O)c2c(O)c(N3CCN(CCO)CC3)c(Cl)c(O)c21	active
COc1ccc2c(c1)CCC1=C2C=C[P+]1(C)C	active
[N-]=[N+]=Nc1c(Cc2ccccc2)c(=O)oc2ccccc12	active
CN(C)CCC(=O)C(=Cc1cc(Cl)cc(Cl)c1)C(=O)CCN(C)C	active
N[C@H](C(=O)O)[C@@H]1CC(Cl)=NO1	active

----------
- Assay procedure: NCI Yeast Anticancer Drug Screen. Data for the mec2-1 strain (AID 157)
- Condition context: S. cerevisiae mec2-1 strain, at 50.0 µM, active compounds read high
The panel holds about 79,000 compounds, 15% with a hit somewhere; the sample as a whole holds those more often.
Please note: yes (1) applies when growth inhibition is 90% or greater, and no (0) applies otherwise.

Compound	Class name
CN(C)CCC(=O)C(=Cc1cc(Cl)cc(Cl)c1)C(=O)CCN(C)C	yes (1)
CC(C)CCCCCCCCCCCCC(=O)NCC(=O)NC1C(C)OC(Nc2ncnc3nc[nH]c23)C(O)C1O (stereo unspecified)	no (0)
O=[N+]([O-])c1ccc2c(c1)Cc1cc(O)c(I)cc1-2	yes (1)
CC(=O)Nc1ccc(-c2cnc3ccccc3c2)cc1	no (0)
Cn1cc(C2=CC(=O)C=CC2=O)c2ccccc21	yes (1)
O=C(C(=O)c1ccncc1)c1ccccc1	no (0)
COc1cnn(-c2ccccc2)c(=O)c1SCc1ccc(Cl)c(Cl)c1	no (0)
CC(=O)ON=C1C=CC(=C(C#N)c2ccccc2)C=C1	yes (1)
C[N+](C)([O-])CCOc1cc2c(c3ccccc13)-c1ccccc1C2=O	no (0)
Cc1cc(C(C)(CC(C)C)c2ccc(O)c(C)c2)ccc1O	yes (1)
CCOC(=O)c1c(I)[nH]c(I)c1C	no (0)
COC(=O)c1c(C(N)=O)c(C)n(NC(=O)c2ccccc2)c1C	no (0)
O=C(NCCc1c(-c2ccccc2)[nH]c2ccccc12)C(F)(F)F	no (0)
COc1ccc(C2SCC(=O)N2c2nncs2)cc1 (stereo unspecified)	no (0)

----------
- Assay procedure: NCI Yeast Anticancer Drug Screen. Data for the cln2 rad14 strain (AID 165);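 note: 0% = growth equal to vehicle treated cultures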
- Condition context: S. cerevisiae cln2 rad14 strain, at 50.0 µM, active compounds read high
The panel holds about 79,000 compounds, 15% with a hit somewhere; the sample as a whole holds those more often.

Compound	growth inhibition (%)
O=[N+]([O-])c1ccc(N=Nc2ccc(O)cc2O)cc1	90.4
CCCCC(=O)N/N=C/c1ccc([N+](=O)[O-])s1	90.8
C1CCC(OC2CCCCO2)OC1 (stereo not drawn)	65.2
CCN(CC)CCNc1c(C)ccc2cccnc12	-29.2
c1cc[c]([Sn]([NH]c2ncnc3[nH]cnc23)([NH]c2ncnc3[nH]cnc23)[c]2ccccc2)cc1	29.4
CCc1cc2c([nH]c3ccccc32)c(C)c1CCN(C)C	-14.6
CN(C)C(=O)SC1=C(c2c(Cl)cccc2Cl)C(=O)c2ccccc21	87.8
C[n+]1c(-c2cccc(OCCOCCOc3cccc(-c4c5cc(N)ccc5c5ccc(N)cc5[n+]4C)c3)c2)c2cc(N)ccc2c2ccc(N)cc21	62.9

----------
- Assay procedure: NCI Yeast Anticancer Drug Screen. Data for the mec2-1 strain (AID 157)
- Condition context: S. cerevisiae mec2-1 strain, at 50.0 µM
The panel holds about 79,000 compounds, 15% with a hit somewhere; the sample as a whole holds those more often. Active and inactive are the calls of the source. Rule as the data show it: active = growth inhibition above about 70%; inactive = the rest.
Labels: 1.0 = active, 0.0 = inactive

Compound	Class name
Nc1ccccc1SCc1csc(-c2ccc(Cl)cc2)n1	1.0
C1=C(c2ccccc2)C(c2ccc(OCCN3CCCCC3)cc2)Oc2ccccc21 (stereo not drawn)	1.0
CCN1/C(=C\c2cc[n+](CC)c3ccccc23)C=Cc2ccccc21	0.0

----------
- Assay procedure: NCI Yeast Anticancer Drug Screen. Data for the rad50 strain (AID 155);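 note: 0% = growth of vehicle-only cultures of the same strain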
- Condition context: S. cerevisiae rad50 strain growth inhibition; at 5.0 µM (retest, dose inferred, filed as 0.5); active compounds read high
This is part of a sample that, as a whole, favours compounds with a hit. Of some 79,000 tested, about 15% had one in any assay.
Known growth inhibition of a selection of compounds

Compound	Unit of measure	growth inhibition
O=C1c2ccccc2C(c2ccccc2)(c2ccccc2)N1c1ccccc1	%	3
O=S(=O)(O)c1cc2ccccc2c(O)c1N=Nc1ccccc1	%	1
O=Nc1cc(-c2ccccc2)c2ccccc2c1O	%	14
OC(Cc1ccccc1)(c1ccccc1)C(O)(Cc1ccccc1)c1ccccc1 (centres undefined)	%	30
CCC(=O)OCC(=O)c1ccc(-c2ccccc2)cc1	%	-9
CCN(CC)c1ccc(SC#N)cc1	%	1
CCCCCCCCC(=O)NCCN(CCN)C(=O)CCCCCCCC	%	-82
Nc1ccc2ccccc2c1Cc1c(O)ccc2ccccc12	%	9
CSc1ncccc1C(=O)[O][Sn]([c]1ccccc1)([c]1ccccc1)[c]1ccccc1	%	100
O=C(Cn1cnc2ccc([N+](=O)[O-])cc21)N1CCN(c2ccccc2)CC1	%	-2
CCCCCCCCSCc1ccc(N)cc1	%	23
N#CSCCSC#N	%	5
CN(C)c1ccc(/C=C(\C#N)c2c(F)cccc2F)cc1	%	4
O=C1C(=O)N(C(=O)c2ccc(Cl)c(Cl)c2)c2ccc(Cl)cc21	%	-6
COc1ccc(-n2c(=O)c3[nH]c(=S)[nH]c3n(-c3ccc(OC)cc3)c2=S)cc1	%	21
Cc1cc(N/N=C/c2cccc3ccccc23)c2cc3c(cc2n1)OCO3	%	7
CCNc1ccc2c(c1)Cc1ccccc1-2	%	45
O=C(O)c1ccccc1Cc1ccc2c(c1)Cc1ccccc1-2	%	2
O=C1C=C(Br)C(=O)C(Br)=C1	%	25

----------
Known growth inhibition of a selection of molecules
- Assay procedure: NCI Yeast Anticancer Drug Screen. Data for the mec2-1 strain (AID 157)
- Condition context: S. cerevisiae mec2-1 strain, at 50.0 µM, active compounds read high
About 79,000 compounds went through this panel and 15% of them were active in at least one assay; those are over-represented in the sample as a whole. Active and inactive are the calls of the source. Cut-off read from the data, not from the text of the source: active = growth inhibition above about 70%; inactive = the rest.

Molecule	growth inhibition
CC(C)(c1ccccc1)c1ccc2[nH]c(C(C)(C)c3ccccc3)c(CC(=O)O)c2c1	69.5% (inactive)
CCC(=O)c1ccc2ccc3ccccc3c2c1	26.4% (inactive)
CC(C)N=C1NS(=O)(=O)c2ccccc21	-3.75% (inactive)
COc1cc(C2c3cc4c(cc3[C@@H](Nc3ccc5c(c3)OCCO5)C3COC(=O)[C@H]23)OCO4)cc(OC)c1O (stereo not given in full)	91.2% (active)
C[C-](O)O.O/C(=C\[C-](O)c1ccccc1)c1ccccc1.O/C(=C\[C-](O)c1ccccc1)c1ccccc1.[Nd+3] (stereo not given)	92.7% (active)
